Hello, the source for this data is patent US20170037028A1, in case you need it.

Target: GLUT1 (Homo sapiens)
Assay: Indirect measurement of GLUT1 activity by quantification of intracellular ATP levels (glucose induced ATP increase)
Format: cell-based
Set-up: endogenous in cells; host or cells: DLD1 or CHO-K1
Settings: read-out: IC50 regarding glucose induced ATP increase (GLUT1 inhibition)
// NB: equality with 200 nM counts as not satisfied; only IC50 strictly below is satisfied

The following compounds have reported results that may help.
>>> df
                           smiles_structure  classification
0  Cc1c(NC(=O)c2cc(C(N)=O)nc3ccccc23)c(C(F)(F)F)nn1Cc1cc(C2CC2)on1       satisfied
1  CC(=O)NCCNC(=O)c1ccc(Cn2nc(C)c(NC(=O)c3cc(C(F)(F)F)nc4ccc(Br)cc34)c2C)cc1       satisfied
2  Cc1nn(Cc2ccc(C(=O)NCC3CC3)cn2)c(C)c1NC(=O)c1cc(C(F)(F)F)nc2ccc(Br)cc12       satisfied
3  Cc1nn(Cc2ccccn2)c(C)c1NC(=O)c1cc(C(F)(F)F)nc2c(Cl)cc(Cl)cc12       satisfied

Q: For this compound, is IC50 lower than 200 nM? Cc1c(NC(=O)c2cc(C(F)(F)F)nc3ccc(Br)cc23)c(C(=O)O)nn1Cc1ccc(F)cc1
A: not satisfied

Q: For this compound, is IC50 lower than 200 nM? Cc1c(NC(=O)c2cc(C(N)=O)nc3ccccc23)c(C(F)(F)F)nn1Cc1ccc(C#N)cc1F
A: satisfied

Q: For this compound, is IC50 lower than 200 nM? Cc1nn(Cc2ccc(F)cc2)c(C)c1NC(=O)c1c(C)c(O)nc2ccccc12
A: not satisfied

Q: For this compound, is IC50 lower than 200 nM? Cc1c(NC(=O)c2cc(C(N)=O)nc3cc(F)ccc23)c(C(F)(F)F)nn1Cc1ccc(C(=O)N2CCC2)cc1
A: satisfied

Q: For this compound, is IC50 lower than 200 nM? Cc1c(NC(=O)c2cc(C(N)=O)nc3ccccc23)c(C(F)(F)F)nn1Cc1ccncc1C#N
A: satisfied

Q: For this compound, is IC50 lower than 200 nM? Cc1nn(Cc2ccc(F)cc2)c(C)c1NC(=O)c1cc(C(F)(F)F)nc2c(C(F)(F)F)cccc12
A: not satisfied

Q: For this compound, is IC50 lower than 200 nM? Cc1nn(Cc2ccc(C(=O)Nc3cccc(C(N)=O)c3)cc2)c(C)c1NC(=O)c1cc(C(F)(F)F)nc2ccc(Br)cc12
A: not satisfied

Q: For this compound, is IC50 lower than 200 nM? COc1cccc(CNC(=O)c2ccc(Cn3nc(C)c(NC(=O)c4cc(C(F)(F)F)nc5ccc(Br)cc45)c3C)cc2)c1
A: satisfied

Q: For this compound, is IC50 lower than 200 nM? Cc1nn(Cc2ccc(C(C)(C)C)cc2)c(C)c1NC(=O)c1cc(C(N)=O)nc2ccccc12
A: satisfied

Q: For this compound, is IC50 lower than 200 nM? Cc1c(NC(=O)c2cc(C(N)=O)nc3ccccc23)c(C(F)(F)F)nn1Cc1nc(C(=O)O)co1
A: not satisfied

* * *

Biological target: GLUT1 (Homo sapiens, UniProt P11166)
Sequence (P11166 whole entry, species assumed): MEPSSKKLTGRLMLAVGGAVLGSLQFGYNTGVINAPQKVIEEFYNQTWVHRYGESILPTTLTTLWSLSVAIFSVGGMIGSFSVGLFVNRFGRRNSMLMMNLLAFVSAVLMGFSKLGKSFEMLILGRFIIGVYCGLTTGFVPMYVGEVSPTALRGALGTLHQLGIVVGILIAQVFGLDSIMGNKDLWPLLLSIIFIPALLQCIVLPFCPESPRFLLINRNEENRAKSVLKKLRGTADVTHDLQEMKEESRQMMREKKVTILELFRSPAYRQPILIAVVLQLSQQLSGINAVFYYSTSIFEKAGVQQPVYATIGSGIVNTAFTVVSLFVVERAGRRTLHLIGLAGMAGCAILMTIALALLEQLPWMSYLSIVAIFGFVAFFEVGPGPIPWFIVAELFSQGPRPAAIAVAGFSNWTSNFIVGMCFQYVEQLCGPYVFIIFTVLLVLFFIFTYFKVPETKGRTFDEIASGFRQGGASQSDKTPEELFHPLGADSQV
Assay: Indirect measurement of GLUT1 activity by quantification of intracellular ATP levels (glucose induced ATP increase)
Type: cell-based
Set-up: endogenous in cells; host or cells: DLD1 or CHO-K1
Settings: read-out: IC50 regarding glucose induced ATP increase (GLUT1 inhibition)
Description: Indirect Measurement of GLUT1 and GLUT2 Activity by Quantification of Intracellular ATP Levels It is well known that a combination of small-molecule inhibitors of mitochondrial electron transport chain and glucose catabolism synergistically suppress ATP production and impair cellular viability (Ulanovskaya et al., 2008, 2011; Liu, et al. 2001). We therefore used DLD1 or CHO-K1 cells in combination with an oxidative phosphorylation inhibitor to identify GLUT1 and GLUT2 inhibitors. […]
Known pIC50 of a selection of compounds
Schema: pIC50 number; meaning minus log10 of the concentration expressed in molar units.

Q: Recorded pIC50 of CCc1cc(Cn2nc(C)c(NC(=O)c3cc(C(N)=O)nc4cc(F)c(Cl)cc34)c2C)on1 , please.
A: 8.89

Q: Recorded pIC50 of Cc1nn(Cc2ccc(C#N)c(F)c2)c(C)c1NC(=O)c1cc(C(F)(F)F)nc2ccc(Br)cc12 , please.
A: 8.47

Q: Recorded pIC50 of CNC(=O)c1cc(C(=O)Nc2c(C)nn(Cc3ccc(F)cc3)c2C)c2ccccc2n1 , please.
A: 7.23

Q: Recorded pIC50 of Cc1c(NC(=O)c2cc(C(=O)NCCN(C)C)nc3cc(F)ccc23)c(C(F)(F)F)nn1Cc1ccc(C#N)cc1 , please.
A: 5.58

Q: Recorded pIC50 of Cc1nn(Cc2ccc(F)cc2)c(C)c1NC(=O)c1cc(C(F)(F)F)nc2c(F)cccc12 , please.
A: 6.59

Q: Recorded pIC50 of CC(=O)c1ccc(Cn2nc(C)c(NC(=O)c3cc(C(N)=O)nc4ccccc34)c2C)cc1 , please.
A: 8.46

Q: Recorded pIC50 of COc1cc(C(=O)Nc2c(C(F)(F)F)nn(Cc3ccncc3)c2C)c2ccccc2n1 , please.
A: 7.42

Q: Recorded pIC50 of Cc1nn(Cc2ccc(C(=O)NCCN(C)C)cc2)c(C)c1NC(=O)c1cc(C(N)=O)nc2cc(F)ccc12 , please.
A: 5.15

Q: Recorded pIC50 of COCCNC(=O)c1ccc(Cn2nc(C(F)(F)F)c(NC(=O)c3cc(C(N)=O)nc4cc(F)ccc34)c2C)cc1 , please.
A: 7.76

Q: Recorded pIC50 of CC(=O)c1cccc(Cn2nc(C(F)(F)F)c(NC(=O)c3cc(C(N)=O)nc4cc(F)c(Cl)cc34)c2C)c1 , please.
A: 7.82

Q: Recorded pIC50 of Cc1nn(Cc2ccc(C#N)cc2)c(C)c1NC(=O)c1cc(C(=O)NCCN(C)C)nc2cc(F)ccc12 , please.
A: 5.91

Q: Recorded pIC50 of Cc1nn(Cc2ccc(C(=O)Nc3ccccc3Cl)cc2)c(C)c1NC(=O)c1cc(C(F)(F)F)nc2ccc(Br)cc12 , please.
A: 8.17

Q: Recorded pIC50 of Cc1nc(Cn2nc(C)c(NC(=O)c3cc(C(N)=O)nc4ccccc34)c2C)cs1 , please.
A: 7.56

Q: Recorded pIC50 of Cc1nn(Cc2ncccc2C#N)c(C)c1NC(=O)c1cc(C(N)=O)nc2ccccc12 , please.
A: 7.55

Q: Recorded pIC50 of COc1cc(C(=O)Nc2c(C(F)(F)F)nn(Cc3ccc(C#N)cc3F)c2C)c2ccccc2n1 , please.
A: 7.66
